Measured GI50 on HCT 116 (colon) cells follows.
Number in µM, nothing else.

COMPOUND SMILES: Nc1ccccc1NC(=O)c1ccc(/C=C(/C(=O)NC2CC2)c2cccc(Cl)c2)cc1
UNIT ANNOTATION: µM
GI50: 0.4

COMPOUND SMILES: O=C(NC1CC1)/C(=C/c1ccc(C(=O)NCc2ccc(C(=O)NO)cc2)cc1)c1ccccc1
UNIT ANNOTATION: µM
GI50: 12

COMPOUND SMILES: O=C(/C=C/c1ccc(/C=C(/C(=O)NC2CC2)c2ccccc2)cc1)NCCCCCC(=O)NO
UNIT ANNOTATION: µM
GI50: 3

COMPOUND SMILES: O=C(NC1CC1)/C(=C/c1ccc(C(=O)NO)cc1)c1ccccc1F
UNIT ANNOTATION: µM
GI50: 29

COMPOUND SMILES: Nc1ccccc1NC(=O)/C=C/c1ccc(/C=C(/C(=O)NC2CC2)c2ccc(C(F)(F)F)cc2)cc1
UNIT ANNOTATION: µM
GI50: 68

The compound Nc1ccccc1NC(=O)c1ccc(/C=C(/C(=O)NC2CC2)c2ccccc2Cl)cc1 , when measured on HCT 116 (colon) cells, yielded GI50 of 6

Value sought: GI50, system HCT 116 (colon) cells, item Cc1ccc(/C(=C\c2ccc(C(=O)NO)cc2)C(=O)NC2CC2)cc1 . Result: 32

These data points were gathered from patent US8450525B2.
